Target: NA transporter (Rattus norvegicus, UniProt Q63380)
Construct: from tissue; host or cells: rat hypothalamus synaptosomes (P2 fraction)
Sequence (Q63380 1-617): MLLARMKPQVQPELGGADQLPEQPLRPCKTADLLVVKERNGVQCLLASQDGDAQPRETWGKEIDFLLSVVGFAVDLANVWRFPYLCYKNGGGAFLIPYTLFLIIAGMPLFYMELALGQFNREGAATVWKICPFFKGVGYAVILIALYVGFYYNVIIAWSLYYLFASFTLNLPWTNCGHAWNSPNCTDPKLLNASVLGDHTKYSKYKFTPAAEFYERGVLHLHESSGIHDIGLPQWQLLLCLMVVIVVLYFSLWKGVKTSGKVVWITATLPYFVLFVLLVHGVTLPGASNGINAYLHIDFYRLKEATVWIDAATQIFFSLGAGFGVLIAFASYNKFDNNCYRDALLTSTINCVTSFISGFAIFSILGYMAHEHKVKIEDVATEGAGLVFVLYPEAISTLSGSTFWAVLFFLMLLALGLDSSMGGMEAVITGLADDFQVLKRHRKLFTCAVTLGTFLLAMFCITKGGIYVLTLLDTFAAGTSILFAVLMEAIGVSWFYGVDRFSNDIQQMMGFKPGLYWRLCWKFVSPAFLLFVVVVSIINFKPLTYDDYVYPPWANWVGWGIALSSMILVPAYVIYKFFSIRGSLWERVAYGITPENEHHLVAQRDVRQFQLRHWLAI
Test: Noradrenaline (NA) uptake inhibition in rat brain synaptosomes (hypothalamus), [3H]-NA
Format: biochemical
Conditions: conc. 10 μM
measured.property: inhibition at 10 µM (%)

[[record]]
smiles_data = "O=C(Nc1noc2cccc(OCC(F)(F)F)c12)c1cc(F)c(Cl)cc1Cl"
unit = "%"
measured_value = 66

[[record]]
smiles_data = "CCCc1ccc(C(=O)Nc2noc3cc(Br)ccc23)cc1"
unit = "%"
measured_value = 61

[[record]]
smiles_data = "CN(C)c1cccc2onc(NC(=O)c3cc(F)c(Cl)cc3Cl)c12"
unit = "%"
measured_value = 63

[[record]]
smiles_data = "O=C(Nc1noc2cc(Cl)ccc12)c1ccc(F)c(F)c1"
unit = "%"
measured_value = 64

[[record]]
smiles_data = "O=C(Nc1noc2cc(F)ccc12)c1cc(Cl)cc(Cl)c1"
unit = "%"
measured_value = 67

[[record]]
smiles_data = "CN(C)c1cccc2onc(NC(=O)c3ccc(F)c(F)c3)c12"
unit = "%"
measured_value = 67

[[record]]
smiles_data = "O=C(Nc1noc2cccc(OCC(F)(F)F)c12)c1ccc(F)c(F)c1F"
unit = "%"
measured_value = 66

[[record]]
smiles_data = "CN(C)c1cccc2onc(NC(=O)C(C)(C)C)c12"
unit = "%"
measured_value = 66

[[record]]
smiles_data = "CN(C)c1cccc2onc(NC(=O)c3ccc(F)c(F)c3F)c12"
unit = "%"
measured_value = 68


* * *

Molecular target: mGluR5 receptor (Sus scrofa)
Construct: 450 μg of protein from brain homogenate are incubated with 5 nM^3[H]-MPEP; from tissue; host or cells: pig brain hemispheres without medulla, cerebellum and pons
Sequence (I3LUI7 19-1212): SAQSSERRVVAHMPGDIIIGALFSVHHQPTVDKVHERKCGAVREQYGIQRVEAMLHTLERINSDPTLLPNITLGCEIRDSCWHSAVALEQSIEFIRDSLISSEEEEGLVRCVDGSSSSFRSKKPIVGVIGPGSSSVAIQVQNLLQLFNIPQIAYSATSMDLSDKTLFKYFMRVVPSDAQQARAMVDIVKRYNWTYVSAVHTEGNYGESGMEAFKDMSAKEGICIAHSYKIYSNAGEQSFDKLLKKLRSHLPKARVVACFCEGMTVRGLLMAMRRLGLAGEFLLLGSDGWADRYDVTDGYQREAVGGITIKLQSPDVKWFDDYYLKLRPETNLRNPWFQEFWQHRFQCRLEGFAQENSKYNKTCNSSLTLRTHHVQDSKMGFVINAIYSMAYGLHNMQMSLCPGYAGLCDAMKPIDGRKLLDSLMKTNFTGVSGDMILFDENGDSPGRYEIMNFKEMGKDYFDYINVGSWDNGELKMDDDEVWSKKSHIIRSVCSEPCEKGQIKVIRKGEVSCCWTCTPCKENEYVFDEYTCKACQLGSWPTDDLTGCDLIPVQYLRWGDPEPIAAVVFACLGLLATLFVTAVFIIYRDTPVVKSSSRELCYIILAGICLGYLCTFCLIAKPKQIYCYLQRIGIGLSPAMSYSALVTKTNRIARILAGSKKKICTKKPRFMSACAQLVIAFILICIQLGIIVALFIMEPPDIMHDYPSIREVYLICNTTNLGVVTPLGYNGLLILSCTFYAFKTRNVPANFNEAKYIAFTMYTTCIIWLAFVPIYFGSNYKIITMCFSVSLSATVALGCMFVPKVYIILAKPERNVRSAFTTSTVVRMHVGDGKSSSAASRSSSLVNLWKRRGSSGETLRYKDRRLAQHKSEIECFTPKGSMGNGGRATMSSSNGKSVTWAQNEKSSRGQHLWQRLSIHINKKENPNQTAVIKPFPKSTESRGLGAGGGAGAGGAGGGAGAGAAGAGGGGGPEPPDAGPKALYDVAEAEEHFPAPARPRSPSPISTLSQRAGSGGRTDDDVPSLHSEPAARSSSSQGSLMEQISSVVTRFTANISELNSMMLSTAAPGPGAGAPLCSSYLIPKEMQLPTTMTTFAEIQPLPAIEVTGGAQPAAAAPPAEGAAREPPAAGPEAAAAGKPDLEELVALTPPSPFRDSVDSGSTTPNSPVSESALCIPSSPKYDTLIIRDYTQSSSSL
Assay: Affinity for the mGluR5 receptor: displacement of 3[H]-MPEP binding in pig brain homogenate
Conditions: 10 μM compound, 5 nM 3[H]-MPEP
measured.property: inhibition at 10 µM (%)

[[record]]
molecule = "O=C(Nc1noc2cccc(OCC(F)(F)F)c12)c1ccc(F)cc1C(F)(F)F [Example 77]"
unit = "%"
measured_value = 38


a: CCCc1ccc(C(=O)Nc2noc3ccc(F)cc23)cc1 [Example 107]
b: Cc1cccc(C(=O)Nc2noc3cccc(Cl)c23)c1 [Example 153]
Task: Form: Entry with minimum inhibition at 10 µM (choose one): a / b API: response body contains the label of the selected item.
Output: a

A: CCC(C)C(=O)Nc1noc2cc(Cl)ccc12 (centres unmarked) [Example 113]
B: CC(C)(C)c1ccc(C(=O)Nc2noc3c(F)cccc23)cc1 [Example 94]
Task: Given A and B , report the one with the higher recorded inhibition at 10 µM. API: response body contains the label of the selected item.
Output: A

* * *

Biological target: 5-HT uptake (serotonin reuptake) (Rattus norvegicus, UniProt P31652)
Construct: from tissue; host or cells: rat medulla and pons synaptosomes (P2 fraction)
Sequence (P31652 whole entry): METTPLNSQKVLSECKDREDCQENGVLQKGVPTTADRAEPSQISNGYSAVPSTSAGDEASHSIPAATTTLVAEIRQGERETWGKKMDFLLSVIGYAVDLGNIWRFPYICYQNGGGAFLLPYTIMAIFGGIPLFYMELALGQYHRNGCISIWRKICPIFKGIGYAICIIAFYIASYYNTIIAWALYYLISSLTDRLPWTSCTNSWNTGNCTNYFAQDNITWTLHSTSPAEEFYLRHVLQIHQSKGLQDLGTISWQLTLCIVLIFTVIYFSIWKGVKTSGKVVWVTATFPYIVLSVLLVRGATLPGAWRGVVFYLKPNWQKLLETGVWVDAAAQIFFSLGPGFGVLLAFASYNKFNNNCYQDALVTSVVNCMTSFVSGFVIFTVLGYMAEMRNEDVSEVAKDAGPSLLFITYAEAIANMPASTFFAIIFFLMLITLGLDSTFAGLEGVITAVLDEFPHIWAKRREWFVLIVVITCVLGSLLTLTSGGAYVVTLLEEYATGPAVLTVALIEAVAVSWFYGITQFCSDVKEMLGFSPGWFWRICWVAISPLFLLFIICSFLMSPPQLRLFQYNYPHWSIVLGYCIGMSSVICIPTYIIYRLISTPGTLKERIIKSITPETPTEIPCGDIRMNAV
Assay: 5HT uptake inhibition in rat brain synaptosomes (medulla and pons), [3H]-5-HT
Type: biochemical
measured.property: 5 HT uptake inhibition [%] conc. 10 μM (%)

[[record]]
compound = "COc1cccc2onc(NC(=O)c3cc(C(F)(F)F)cc(C(F)(F)F)c3)c12"
tested_on = "5-HT uptake (serotonin reuptake) (Rattus norvegicus, UniProt P31652)"
unit = "%"
measured_value = 85

[[record]]
compound = "O=C(Nc1noc2cc(F)ccc12)c1cccs1"
tested_on = "5-HT uptake (serotonin reuptake) (Rattus norvegicus, UniProt P31652)"
unit = "%"
measured_value = 77

[[record]]
compound = "O=C(Nc1noc2cc(Br)ccc12)c1ccccc1C(F)(F)F"
tested_on = "5-HT uptake (serotonin reuptake) (Rattus norvegicus, UniProt P31652)"
unit = "%"
measured_value = 86

[[record]]
compound = "O=C(Nc1noc2cc(Br)ccc12)C1C2CC3CC(C2)CC1C3 (stereo not shown)"
tested_on = "5-HT uptake (serotonin reuptake) (Rattus norvegicus, UniProt P31652)"
unit = "%"
measured_value = 79


* * *

Target: mGluR5 receptor (Sus scrofa)
Construct: 450 μg of protein from brain homogenate are incubated with 5 nM^3[H]-MPEP; from tissue; host or cells: pig brain hemispheres without medulla, cerebellum and pons
Assay: Affinity for the mGluR5 receptor: displacement of 3[H]-MPEP binding in pig brain homogenate
Details: 10 μM compound, 5 nM 3[H]-MPEP
measured.property: inhibition at 10 µM (%)

I: Cc1ccc2onc(NC(=O)c3ccccc3Cl)c2c1 [Example 120]
II: COc1ccccc1C(=O)Nc1noc2cccc(OCC(F)(F)F)c12 [Example 39]
Task: Form: Entry with minimum inhibition at 10 µM (choose one): I / II API: response body contains the label of the selected item.
Output: II

* * *

Molecular target: NA transporter (Rattus norvegicus)
Construct: from tissue; host or cells: rat hypothalamus synaptosomes (P2 fraction)
Test: Noradrenaline (NA) uptake inhibition in rat brain synaptosomes (hypothalamus), [3H]-NA
Format: biochemical
measured.property: NA uptake inhibition [%] conc. 10 μM (%)

[[record]]
compound = "CN(C)c1cccc2onc(NC(=O)c3ccc4ccccc4c3)c12 [Example 67]"
measured_property = "NA uptake inhibition [%] conc. 10 μM"
unit = "%"
measured_value = 73

[[record]]
compound = "O=C(Nc1noc2cccc(F)c12)c1cc2ccccc2s1 [Example 12]"
measured_property = "NA uptake inhibition [%] conc. 10 μM"
unit = "%"
measured_value = 60

[[record]]
compound = "O=C(Nc1noc2c(F)cccc12)c1ccc2ccccc2c1 [Example 57]"
measured_property = "NA uptake inhibition [%] conc. 10 μM"
unit = "%"
measured_value = 67

[[record]]
compound = "O=C(Nc1noc2c(F)cccc12)c1ccco1 [Example 63]"
measured_property = "NA uptake inhibition [%] conc. 10 μM"
unit = "%"
measured_value = 64

[[record]]
compound = "O=C(Nc1noc2ccc(Br)cc12)c1ccco1 [Example 50]"
measured_property = "NA uptake inhibition [%] conc. 10 μM"
unit = "%"
measured_value = 66

[[record]]
compound = "Nc1cccc2onc(NC(=O)c3cccc4ccccc34)c12 [Example 11]"
measured_property = "NA uptake inhibition [%] conc. 10 μM"
unit = "%"
measured_value = 71

[[record]]
compound = "O=C(Nc1noc2cc(Cl)ccc12)c1ccc2ccccc2c1 [Example 41]"
measured_property = "NA uptake inhibition [%] conc. 10 μM"
unit = "%"
measured_value = 61

[[record]]
compound = "O=C(Nc1noc2ccc(Br)cc12)C1CC1 [Example 8]"
measured_property = "NA uptake inhibition [%] conc. 10 μM"
unit = "%"
measured_value = 62

[[record]]
compound = "CCCc1ccc(C(=O)Nc2noc3cccc(F)c23)cc1 [Example 58]"
measured_property = "NA uptake inhibition [%] conc. 10 μM"
unit = "%"
measured_value = 64

[[record]]
compound = "O=C(Nc1noc2cccc(OCC(F)(F)F)c12)c1ccc2ccccc2c1 [Example 81]"
measured_property = "NA uptake inhibition [%] conc. 10 μM"
unit = "%"
measured_value = 65


* * *

Biological target: NA transporter (Rattus norvegicus)
Construct: from tissue; host or cells: rat hypothalamus synaptosomes (P2 fraction)
Assay: Noradrenaline (NA) uptake inhibition in rat brain synaptosomes (hypothalamus), [3H]-NA
Type: biochemical
Conditions: conc. 10 μM
measured.property: inhibition at 10 µM (%)

[[record]]
smiles_data = "O=C(Nc1noc2cc(Br)ccc12)c1ccc(F)c(F)c1"
unit = "%"
measured_value = 65

[[record]]
smiles_data = "O=C(Nc1noc2cc(Br)ccc12)c1ccc(F)cc1C(F)(F)F"
unit = "%"
measured_value = 66

[[record]]
smiles_data = "COc1cccc(C(=O)Nc2noc3cccc(N(C)C)c23)c1"
unit = "%"
measured_value = 65

[[record]]
smiles_data = "O=C(Nc1noc2c(F)cccc12)c1ccc(F)c(F)c1F"
unit = "%"
measured_value = 63

[[record]]
smiles_data = "O=C(Nc1noc2cc(Br)ccc12)c1ccc(F)c(F)c1F"
unit = "%"
measured_value = 66

[[record]]
smiles_data = "O=C(Nc1noc2c(F)cccc12)C(c1ccccc1)c1ccccc1"
unit = "%"
measured_value = 63

[[record]]
smiles_data = "O=C(Nc1noc2c(F)cccc12)c1cc(F)c(Cl)cc1Cl"
unit = "%"
measured_value = 70

[[record]]
smiles_data = "O=C(Nc1noc2cccc(OCC(F)(F)F)c12)c1ccc(C(F)(F)F)c(F)c1"
unit = "%"
measured_value = 62

[[record]]
smiles_data = "O=C(Nc1noc2c(F)cccc12)c1cccc(C(F)(F)F)c1F"
unit = "%"
measured_value = 66


* * *

Biological target: NA transporter (Rattus norvegicus, UniProt Q63380)
Construct: from tissue; host or cells: rat hypothalamus synaptosomes (P2 fraction)
Assay: Noradrenaline (NA) uptake inhibition in rat brain synaptosomes (hypothalamus), [3H]-NA
Format: biochemical
Settings: conc. 10 μM
measured.property: inhibition at 10 µM (%)

[[record]]
smiles_data = "O=C(Nc1noc2cccc(OCC(F)(F)F)c12)c1ccc(F)c(F)c1"
unit = "%"
measured_value = 68

[[record]]
smiles_data = "O=C(Nc1noc2cc(Cl)ccc12)c1cccc(C(F)(F)F)c1F"
unit = "%"
measured_value = 63

[[record]]
smiles_data = "O=C(Nc1noc2cccc(OCC(F)(F)F)c12)c1cccc(C(F)(F)F)c1F"
unit = "%"
measured_value = 65

[[record]]
smiles_data = "CN(C)c1cccc2onc(NC(=O)c3cccc(C(F)(F)F)c3F)c12"
unit = "%"
measured_value = 66

[[record]]
smiles_data = "O=C(Nc1noc2cc(Br)ccc12)c1cc(F)c(Cl)cc1Cl"
unit = "%"
measured_value = 61

[[record]]
smiles_data = "O=C(Nc1noc2c(F)cccc12)c1ccc(C(F)(F)F)c(F)c1"
unit = "%"
measured_value = 69

[[record]]
smiles_data = "O=C(Nc1noc2c(F)cccc12)c1ccc(I)cc1"
unit = "%"
measured_value = 69

[[record]]
smiles_data = "Nc1cccc2onc(NC(=O)c3ccc([N+](=O)[O-])cc3)c12"
unit = "%"
measured_value = 66

[[record]]
smiles_data = "O=C(Nc1noc2cc(Br)ccc12)c1ccc(C(F)(F)F)c(F)c1"
unit = "%"
measured_value = 64

[[record]]
smiles_data = "CN(C)c1cccc2onc(NC(=O)C(F)(F)C(F)(F)C(F)(F)F)c12"
unit = "%"
measured_value = 67

[[record]]
smiles_data = "CN(C)c1cccc2onc(NC(=O)c3cccnc3Cl)c12"
unit = "%"
measured_value = 64


All figures here come from patent US20080312301A1.
